Field: normalized growth. Provide a value for each of the molecules that follow.
# MEASUREMENT_NOTES: chemical genetic growth profiling, strain panel (AID 1159580);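 also: tested at 20 µM; growth read once vehicle control cultures reached saturation at 30 °C; 1 = growth at the plate median or of vehicle wells; lower values mean less growth of the strain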
# CONDITION_SET: S. cerevisiae deletion strains, growth OD, locus YIL073C, strain SPO22, active compounds read low
The whole screen tested about 5,500 compounds, of which about 2,000 (36%) were called active. Inconclusive results (about 18%) are left out. This is one part of the list.
In your answer, state the number alone without any accompanying words.

q: Looking for the measured normalized growth of C[C@H]1O[C@@H](O[C@H]2[C@@H](O)C[C@H](O[C@H]3[C@@H](O)C[C@H](O[C@H]4CC[C@]5(C)C6CC[C@]7(C)[C@@H](C8=CC(=O)OC8)CC[C@]7(O)C6CC[C@@H]5C4)O[C@@H]3C)O[C@@H]2C)C[C@H](O)[C@@H]1O (some centres not stated) , can you help?
a: 0.936

q: Looking for the measured normalized growth of CC1=CC(=O)C2C(C)(C)CCC[C@]2(C)[C@@]1(O)CCc1ccoc1 (some centres not stated) , can you help?
a: 1.02

q: Looking for the measured normalized growth of C[C@]12CC[C@H](O)C[C@H]1CCC1C2CC[C@]2(C)[C@@H](C3=CC(=O)OC3)[C@@H](O)C[C@]12O (some centres not stated) , can you help?
a: 1.07

q: Looking for the measured normalized growth of C[N+]1(C)C[C@H](O)[C@H](C(=O)[O-])C1 , can you help?
a: 1.1

q: Looking for the measured normalized growth of CC(=O)O[C@@H]1c2c(ccc3ccc(=O)oc23)OC(C)(C)[C@@H]1OC(=O)CC(C)C , can you help?
a: 1.01

q: Looking for the measured normalized growth of COC(=O)NC(=S)Nc1ccccc1NC(=S)NC(=O)OC , can you help?
a: 0.999

q: Looking for the measured normalized growth of C[C@@H]1CCC2[C@](C)(CO)[C@@H](O)CC[C@]2(C)[C@@]12CC[C@@](CO)(CCO)O2 (some centres not stated) , can you help?
a: 0.979

q: Looking for the measured normalized growth of CO[C@H]1[C@H](O)[C@@H](O[C@H]2CC[C@]3(C=O)C4CC[C@]5(C)[C@@H](C6=CC(=O)OC6)CC[C@]5(O)C4CC[C@@H]3C2)O[C@@H](C)[C@@H]1O (some centres not stated) , can you help?
a: 0.994

q: Looking for the measured normalized growth of COC1C(O)C(O[C@H]2CC[C@]3(C=O)C4C(CC[C@]3(O)C2)[C@@]2(O)CC[C@H](C3=CC(=O)OC3)[C@@]2(C)C[C@H]4OC(C)=O)OC(C)C1OC(C)=O (some centres not stated) , can you help?
a: 1.1

q: Looking for the measured normalized growth of O=c1c(O)cccc2c(C3Oc4cc(O)cc(O)c4CC3O)cc(O)c(O)c12 (configuration not stated) , can you help?
a: 0.243

q: Looking for the measured normalized growth of COc1ccc(-c2cc(=O)c3c(O)c(OC)c(O[C@H]4O[C@H](CO[C@@H]5O[C@@H](C)[C@H](O)[C@@H](O)[C@H]5O)[C@@H](O)[C@H](O)[C@H]4O)cc3o2)cc1 , can you help?
a: 1.08

q: Looking for the measured normalized growth of CCc1ccc2c(O)c3c(cc2c1C(=O)OC)C(=O)c1c(O)ccc(O)c1C3=O , can you help?
a: 1.03

q: Looking for the measured normalized growth of CC(C)(C)NCC(O)COc1cccc2c1C[C@H](O)[C@H](O)C2 (some centres not stated) , can you help?
a: 0.883

q: Looking for the measured normalized growth of NC(=O)c1ccc([N+](=O)[O-])cc1Cl , can you help?
a: 0.95

q: Looking for the measured normalized growth of COc1ccc(-c2cc(=O)c3c(O)c(OC)c(OC)cc3o2)cc1O , can you help?
a: 0.873

q: Looking for the measured normalized growth of COc1cc(C(=O)N2CCOCC2)cc(OC)c1OC , can you help?
a: 1.09

q: Looking for the measured normalized growth of COc1ccc(-c2cc(=O)c3c(O)cc(O)cc3o2)cc1 , can you help?
a: 0.942

Reference source for all entries: PubChem BioAssay AID1159580
